- MEASURED TARGET: Vanilloid receptor (Rattus norvegicus, UniProt Q9ERZ8+Q9WUD2+O35433)
- ASSAY OVERVIEW: In vitro inhibitory concentration was determined against [45Ca2+]- influx in rat DRG neurons
- Assay type: functional
Classify by IC50. Ranges: lower band (below 70 nM), central band (70 nM to below 500 nM), upper band (500 nM or more)

Field: class (IC50) — entry: CC(C)(C)COc1cc(C(C)(C)C)ccc1C/N=C(\S)NCc1ccc(NS(C)(=O)=O)cc1
lower band

Just checking, what class would you give CC(=O)OCc1cc(C(C)(C)C)ccc1C/N=C(\S)NCc1ccc(NS(C)(=O)=O)cc1 here?
upper band

Hi, small favor: classify CCCOc1cc(C(C)(C)C)ccc1C/N=C(\S)NCc1ccc(NS(C)(=O)=O)cc1 by its IC50 when you get a moment.
central band

Which class does CCCCOc1cc(C(C)(C)C)ccc1C/N=C(\S)NCc1ccc(NS(C)(=O)=O)c(F)c1 fall in?
lower band

Lab note: sort CCCCCCOc1cc(C(C)(C)C)ccc1C/N=C(\S)NCc1ccc(NS(C)(=O)=O)cc1 into the matching IC50 band.
central band

Determine which band this compound sits in: C=C(C)[C@]12C[C@@H](C)[C@@]34O[C@](Cc5ccccc5)(O[C@@H]1[C@@H]3C=C(COC(=O)Cc1cc(I)c(O)c(OC)c1)C[C@]1(O)C(=O)C(C)=C[C@@H]41)O2
upper band

Pick a category. Item: COc1cc(CC/N=C(\S)NCCc2ccccc2)ccc1O
central band

Classify this compound: CCOc1cc(C(C)(C)C)ccc1C/N=C(\S)NCc1ccc(NS(C)(=O)=O)cc1
upper band

Hello team, could you let me know which band the following compound falls into: CC(C)(C)c1ccc(C/N=C(\S)NCc2ccc(NS(C)(=O)=O)cc2)c(OCc2ccccc2)c1
upper band

Which bin, given its IC50, does COCCOc1cc(C(C)(C)C)ccc1C/N=C(\S)NCc1ccc(NS(C)(=O)=O)cc1 occupy?
lower band

Category of NC(=O)N1CCN(c2ccccn2)CC1 , please.
lower band

GET /class?item= N/C(S)=N/N1CCCC1
upper band

Assign a category based on measured IC50 for COc1cc(C(C)(C)C)ccc1C/N=C(\S)NCc1ccc(NS(C)(=O)=O)cc1 and give only the class name.
upper band

Which class is correct for the following compound? CC(C)(C)COc1cc(C(C)(C)C)ccc1C/N=C(\S)NCc1ccc(NS(C)(=O)=O)c(F)c1
lower band

Tag the class for CCCCOc1cc(C(C)(C)C)ccc1C/N=C(\S)NCc1ccc(NS(C)(=O)=O)cc1
lower band

Assign a category based on measured IC50 for CCCNCC(=O)N(CCC)CC(=O)N(CCC)CC(=O)O and give only the class name.
upper band

Which class does CC(C)(C)C(=O)OCc1cc(C(C)(C)C)ccc1C/N=C(\S)NCc1ccc(NS(C)(=O)=O)c(F)c1 fall in?
lower band

Bin? CC(C)Oc1cc(C(C)(C)C)ccc1C/N=C(\S)NCc1ccc(NS(C)(=O)=O)cc1
central band

Hello team, could you let me know which band the following compound falls into: CC(C)(C)C(=O)Oc1cc(C(C)(C)C)ccc1C/N=C(\S)NCc1ccc(NS(C)(=O)=O)cc1
central band

---

Consider the following compounds; for each one, report its IC50.
- MEASURED TARGET: Vanilloid receptor (Rattus norvegicus, UniProt Q9ERZ8+Q9WUD2+O35433)
- ASSAY OVERVIEW: In vitro inhibitory concentration was determined against [45Ca2+]- influx in rat DRG neurons
- Type: functional
Just the number in nM, nothing appended.

# return recorded IC50 for input Cc1cc(CN/C(S)=N/Cc2ccc(NS(C)(=O)=O)cc2)c(COC(=O)C(C)(C)C)cc1C
70

Entry CCCCCOc1cc(C(C)(C)C)ccc1C/N=C(\S)NCc1ccc(NS(C)(=O)=O)cc1 needs its IC50 filled in; supply it.
70

Please give the documented IC50 of COCOc1cc(C(C)(C)C)ccc1C/N=C(\S)NCc1ccc(NS(C)(=O)=O)cc1
500

Report IC50, nothing else, for this compound: CC(C)(C)C(=O)OCc1cc(C(C)(C)C)ccc1C/N=C(\S)NCc1ccc(NS(C)(=O)=O)cc1
70
